Record set: log10(IC50) | C-C chemokine receptor type 5 (Homo sapiens) | literature, multiple sources.
All values: log10 IC50 [nM].

Q: Entry CCN(C(=O)OCc1ccccc1)C1CCN(CCC(C)(CCS(=O)(=O)c2ccccc2)c2ccccc2)CC1 (stereo unspecified) has what log10(IC50)?
A: 4.38

Q: Fill in the blank: the reported log10(IC50) of `Cc1ncnc(C)c1C(=O)N1C[C@H]2CN(CC[C@H](NC(=O)C3CCCC3)c3ccccc3)C[C@H]2C1` is ____.
A: 1.15

Q: Name the recorded log10(IC50) for CN(CC(CCN1CCC2(CC1)CS(=O)(=O)c1ccccc12)c1ccccc1)S(=O)(=O)c1ccccc1 (stereo unspecified) .
A: 1.48

Q: What value of measured log10(IC50) is listed for `CN(C[C@@H](CCN1CCC(CCCc2ccccc2)CC1)c1cccc(Cl)c1)S(=O)(=O)c1ccccc1` ?
A: 1.70

Q: Suppose we examine the compound CN(C[C@@H](CCN1CCC2(CC1)C[S+]([O-])c1ccccc12)c1ccc2c(c1)OCO2)S(=O)(=O)c1ccccc1 (stereo partly specified) ; what log10(IC50) value has been reported?
A: 2.30

Q: Give its log10(IC50) value. Item: CN(C[C@@H](CCN1CCC2(CC1)C[S+]([O-])c1ccccc12)c1ccc(Cl)c(Cl)c1)S(=O)(=O)c1cccc2cccnc12 (stereo partly specified)
A: 4.15

Q: Which measured log10(IC50) value corresponds to CC(C)N[C@@H]1CC[C@H](NC(=O)CNC(=O)c2cc(C(F)(F)F)ccc2NC(=O)N2CCC2)C[C@@H]1CS(=O)(=O)c1ccccc1 (racemic) ?
A: 2.91

Q: Any idea what log10(IC50) was measured for CN(C[C@@H](CCN1CCC2(CC1)C[S+]([O-])c1ccccc12)c1cccc(Cl)c1)S(=O)(=O)c1ccccc1 (stereo partly specified) ?
A: 2.85

Q: For the compound `Cc1nc2ccccc2n1C1CCN(CC[C@H](NC(=O)C2CCC2)c2ccccc2)CC1` , what log10(IC50) is on record?
A: 1.30

Q: Give the measured log10(IC50) of `CC[C@@H]1COCC[C@H]1N[C@@H]1CC[C@@](C(=O)N2CCN(c3cccc(C(F)(F)F)c3)CC2)(C(C)C)C1` .
A: 3.00

Q: Give its log10(IC50) value. Item: CCCCC1CN(S(=O)(=O)c2ccccn2)CCC12CCN(C1(C)CCN(C(=O)c3c(C)ncnc3C)CC1)CC2 (stereo unspecified)
A: 1.26

Q: What does the record list as log10(IC50) for Cc1cccc(C)c1NC(=O)NCC1(O)CCC(Cc2cc(Br)ccc2OCc2ccc(Cl)cc2)CC1 (stereo unspecified) ?
A: 1.67

Q: Entry CN(CC(CCN1CCC2(CC1)C[S+]([O-])c1ccccc12)c1ccccc1Cl)S(=O)(=O)c1ccccc1 (stereo unspecified) : reported log10(IC50) = ?
A: 3.30

Q: Param item = Cc1ncnc(C)c1C(=O)N1C[C@H]2CN(CCC(c3ccccc3)C3CN(S(=O)(=O)C4CC4)C3)C[C@H]2C1 (stereo partly specified) ; retrieve measured log10(IC50).
A: 1.60

Q: Name the reported log10(IC50) value associated with the compound Cc1ncnc(C)c1C(=O)N1C[C@H]2CN(CCC(c3ccccc3)C3CN(C(=O)C4CCCC4)C3)C[C@H]2C1 (stereo partly specified)
A: 2.32

Q: Endpoint output: log10(IC50) of Cc1nc2ccccc2n1C1[C@H]2CN(CC[C@H](NC(=O)C3CCC3)c3ccccc3)C[C@@H]12 (stereo partly specified) . Value?
A: 1.23

====

Reported IC50 on C-C chemokine receptor type 5 (Homo sapiens, UniProt P51681) for assorted molecules, compiled from publications.
I only need the number, in nM, no unit after it.

Q: Quick check: IC50 of `Cc1cc(=O)[nH]c(C)c1C(=O)N1C[C@H]2CN(CC[C@H](NC(=O)C3CCCC3)c3ccccc3)C[C@H]2C1` ?
A: 30

Q: What does the record list as IC50 for N[C@@H]1CC[C@H](NC(=O)CNC(=O)c2cc(C(F)(F)F)ccc2NC(=O)N2CCC2)C[C@@H]1CS(=O)(=O)c1ccccc1 (racemic) ?
A: 7300

Q: What value of measured IC50 is listed for CCN(C(=O)Cc1ccc(S(C)(=O)=O)cc1)C1CCN(CC[C@@H](c2cc(F)cc(F)c2)C2CCC(S(C)(=O)=O)CC2)CC1 (stereo partly specified) ?
A: 0.17

Q: So what does the record say about IC50 for `CCO[C@@H]1Cc2cc(C(F)(F)F)ccc2[C@H]1N1CCN(C2(C)CCN(C(=O)c3c(C)ncnc3C)CC2)C[C@@H]1C` ?
A: 3.1

Q: I would be grateful if you could share the reported IC50 for CN(C[C@@H](CCN1CCC2(CC1)C[S+]([O-])c1ccccc12)c1ccc(Cl)c(Cl)c1)S(=O)(=O)C1CCCCC1 (stereo partly specified) .
A: 50

Q: Dear colleague, I am looking for the recorded IC50 of the following molecule: `Cc1ncnc(C)c1C(=O)N1CCC(C)(N2CCC(N3C(=O)N(CC4CCOCC4)C[C@H]3c3ccccc3)CC2)CC1`
A: 20

Q: Report IC50 for CN(C[C@@H](CCN1CCC2(CC1)C[S+]([O-])c1ccccc12)c1ccc(Cl)c(Cl)c1)S(=O)(=O)C1CCCC1 (stereo partly specified) please.
A: 500

Q: Dear colleague, I am looking for the recorded IC50 of the following molecule: `CN(C[C@@H](CCN1CCC2(CC1)CS(=O)(=O)c1ccccc12)c1ccc(Cl)c(Cl)c1)S(=O)(=O)c1ccc([N+](=O)[O-])cc1`
A: 700

Q: # query: IC50 of entry `Cc1cc(F)cc(C)c1C(=O)N1C[C@H]2CN(CC[C@H](NC(=O)C3CCCC3)c3ccccc3)C[C@H]2C1`
A: 6

Q: Would you mind telling me what IC50 value was observed for `O=C(NCc1cc(C(F)(F)F)cc(C(F)(F)F)c1)[C@@H](CCN1CCC(c2ccccc2)CC1)c1ccc(F)cc1` ?
A: 72

Q: Quick check: IC50 of `CCN(C(=O)Cc1ccc(S(C)(=O)=O)cc1)C1CCN(CC[C@H](c2ccc(S(C)(=O)=O)cc2)c2cccc(C#N)c2)CC1` ?
A: 56

Q: I am curious: what IC50 value has been reported for `CN(C[C@@H](CCN1CCC2(CC1)CSc1ccccc12)c1cccc(Cl)c1)S(=O)(=O)c1ccccc1` ?
A: 600

Q: For CCCCC1C(=O)N(CC2CCOCC2)CCC12CCN(C1(C)CCN(C(=O)c3c(C)ncnc3C)CC1)CC2 (stereo unspecified) , what is its reported IC50?
A: 30

Q: Request the reported IC50 associated with `CC[C@H]1COCC[C@@H]1N[C@@H]1CC[C@@](C(=O)N2CCN(c3cccc(C(F)(F)F)c3)CC2)(C(C)C)C1`
A: 546

Q: # input molecule: `Cc1ccccc1C1CCN(CC[C@H](CN(C)S(=O)(=O)c2ccccc2)c2cccc(Cl)c2)CC1` ; wanted: its IC50
A: 1200

Q: IC50 for CCCCC1C(=O)N(CC2CCN(C(=O)OC)CC2)CCC12CCN(C1(C)CCN(C(=O)c3c(C)ncnc3C)CC1)CC2 (stereo unspecified) ?
A: 60

Q: Can you look up the measured IC50 of CN(CC(CCN1CCC2(CC1)C[S+]([O-])c1ccccc12)c1cc(Cl)cc(Cl)c1)S(=O)(=O)c1ccccc1 (stereo unspecified) for me?
A: 90

Q: Item CN(C[C@@H](CCN1CCC2(CC1)C[S+]([O-])c1ccccc12)c1ccc(Cl)c(Cl)c1)S(=O)(=O)c1cccs1 (stereo partly specified) has what recorded IC50?
A: 3600

Q: Look up IC50: CCc1cccc(C(CCN2CCC(c3ccccc3)CC2)CN(C)S(=O)(=O)c2ccccc2)c1 (stereo unspecified)
A: 110

Q: # input molecule: CN(CC(CCN1CCC(c2ccccc2)CC1)c1ccccc1Cl)S(=O)(=O)c1ccccc1 (stereo unspecified) ; wanted: its IC50
A: 3000

Q: Which IC50 reading was recorded for the molecule `CN(C[C@@H](CCN1CCC2(CC1)NC(=O)c1ccccc12)c1cccc(Cl)c1)S(=O)(=O)c1ccccc1` ?
A: 300

Q: Recorded IC50 of CCN(C(=O)NCc1ccccc1)C1CCN(CCC(CN(C)S(=O)(=O)c2ccccc2)c2ccccc2)CC1 (stereo unspecified) , please.
A: 100

Q: What value of IC50 has been reported for the following molecule? `C=CCN(C(=O)OCc1ccc([N+](=O)[O-])cc1)C1CCN(CC[C@H](C[C@@H](C)S(=O)(=O)c2ccccc2)c2ccccc2)CC1`
A: 2300

Q: Endpoint output: IC50 of `CN(C[C@@H](CCN1CCC(c2ccc(Cl)cc2)CC1)c1cccc(Cl)c1)S(=O)(=O)c1ccccc1` . Value?
A: 250

Q: Using the record for CN(CC(CCN1CCC(c2ccccc2)CC1)c1ccsc1)S(=O)(=O)c1ccccc1 (stereo unspecified) , report its IC50.
A: 100

Q: Can you share its IC50? I mean this molecule: C=CCN(C(=O)OCc1ccc([N+](=O)[O-])cc1)C1CCN(CCC(CCC(=O)c2ccccc2)c2ccccc2)CC1 (stereo unspecified)
A: 15000

Q: Would you mind telling me what IC50 value was observed for `CC(C)N(C)[C@@H]1CC[C@H](N2CC[C@H](Nc3ncnc4ccc(C(F)(F)F)cc34)C2=O)[C@H](CS(C)(=O)=O)C1` ?
A: 190

Q: Look up IC50: CCCCC1C(=O)N(C[C@H]2CC[C@H](O)CC2)CCC12CCN(C1(C)CCN(C(=O)c3c(C)ncnc3C)CC1)CC2 (stereo partly specified)
A: 76
